Where do these numbers come from? They come from patent US20230105029A1.

# target desc: T1, human IL4Rα expressed on 293F-IL4Rα cells (human, UniProt P24394 26-825)
# T1 construct: whole, on cells; also called cell surface human IL4Rα
# protocol notes: flow cytometry, 293F-IL4Rα cells
measurement name: pEC50
Keep in mind that pEC50 stands for -log10 of concentration in molar terms.

chimeric antibody B8G11F2B7G5E8 (antibody, human IgG4 S228P, kappa, V domains shown, Mouse variable domains on human IgG4/kappa; also called Chimeric B8G11F2B7G5E8; chB8G11F2B7G5E8) VH: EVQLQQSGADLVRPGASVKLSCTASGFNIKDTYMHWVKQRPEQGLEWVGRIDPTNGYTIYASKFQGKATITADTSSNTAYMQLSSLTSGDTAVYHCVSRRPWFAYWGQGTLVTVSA VL: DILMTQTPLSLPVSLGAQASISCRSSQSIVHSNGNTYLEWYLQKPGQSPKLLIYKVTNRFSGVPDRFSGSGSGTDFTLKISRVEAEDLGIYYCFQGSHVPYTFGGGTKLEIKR
9.11
chimeric antibody C2C1A1A1 (antibody, human IgG4 S228P, kappa, V domains shown, Mouse variable domains on human IgG4/kappa; also called Chimeric C2C1A1A1; chC2C1A1A1) VH: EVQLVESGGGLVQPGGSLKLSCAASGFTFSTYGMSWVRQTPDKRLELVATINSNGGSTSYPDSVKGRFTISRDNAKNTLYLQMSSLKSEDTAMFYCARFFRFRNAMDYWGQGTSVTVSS VL: DIQMTQSPASLSASVGETVTITCRTSENIYSYLAWYQQKQGKSPQFLVYNAKTLAEGVPSRFSGSGSGTQFSLNINSLQSEDFGSYYCQHYYGPPTWTFGGGTKLEIKR
9.20
mouse antibody C2C1A1A1 (antibody, V domains shown, Mouse hybridoma mAb; also called Mouse C2C1A1A1) VH: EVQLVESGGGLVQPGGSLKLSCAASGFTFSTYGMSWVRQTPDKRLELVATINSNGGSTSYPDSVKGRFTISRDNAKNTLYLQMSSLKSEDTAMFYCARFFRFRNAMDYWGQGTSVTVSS VL: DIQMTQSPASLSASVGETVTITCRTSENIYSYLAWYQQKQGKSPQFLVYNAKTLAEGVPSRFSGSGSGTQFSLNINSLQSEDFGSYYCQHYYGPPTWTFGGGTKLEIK
9.51

Then there is this binder:
Supply pEC50 value. Item: mouse antibody B8G11F2B7G5E8 (antibody, V domains shown, Mouse hybridoma mAb; also called Mouse B8G11F2B7G5E8; mAb B8G11F2B7G5E8) VH: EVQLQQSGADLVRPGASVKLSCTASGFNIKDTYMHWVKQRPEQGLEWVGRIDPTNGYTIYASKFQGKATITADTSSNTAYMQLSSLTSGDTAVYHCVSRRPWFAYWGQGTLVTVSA VL: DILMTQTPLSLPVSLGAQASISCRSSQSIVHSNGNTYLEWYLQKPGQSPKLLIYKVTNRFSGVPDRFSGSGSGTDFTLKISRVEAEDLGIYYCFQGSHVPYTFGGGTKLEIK 9.39
